Tested on: Streptococcus pyogenes
Assay: Antibacterial activity against Streptococcus pyogenes group A clinical isolate by broth microdilution method
Type: functional
property.measured: MIC50

compound.smiles	test.result
CO/N=C(\C(=O)N[C@@H]1C(=O)N2C(C(=O)O)=C(CSc3nc(=O)c(O)nn3C)CS[C@H]12)c1csc(N)n1	≤ 0.015 mg/L
CCCCCCCCCC(=O)N[C@@H](Cc1c[nH]c2ccccc12)C(=O)N[C@H](CC(N)=O)C(=O)N[C@@H](CC(=O)O)C(=O)N[C@@H]1C(=O)NCC(=O)N[C@@H](CCCN)C(=O)N[C@@H](CC(=O)O)C(=O)N[C@H](C)C(=O)N[C@@H](CC(=O)O)C(=O)NCC(=O)N[C@H](CO)C(=O)N[C@@H]([C@H](C)CC(=O)O)C(=O)N[C@@H](CC(=O)c2ccccc2N)C(=O)O[C@@H]1C	≤ 0.03 mg/L
CC1(C)S[C@@H]2[C@H](NC(=O)Cc3ccccc3)C(=O)N2[C@H]1C(=O)O	≤ 0.06 mg/L

Note: attention shifts to another entry.
Ask | Fill in MIC50 for `CO/N=C(\C(=O)N[C@@H]1C(=O)N2C(C(=O)O)=C(COC(N)=O)CS[C@H]12)c1ccco1` tested with Streptococcus pyogenes.
Reply | ≤ 0.12 mg/L

###

System: Streptococcus pneumoniae
Test: Antibacterial activity against penicillin intermediate Streptococcus pneumoniae clinical isolate by broth microdilution method
Assay type: functional
Hi there, I'd appreciate the recorded MIC50 for every entry that follows.
One number for each entry, in mg/L.

// worked examples, MIC50 included
compound	MIC50 [mg/L]
CCC[C@@H]1C[C@@H](C(=O)N[C@@H]([C@H]2O[C@H](SC)[C@H](O)[C@@H](O)[C@H]2O)[C@H](C)Cl)N(C)C1 [CLINDAMYCIN]	0.06
CO/N=C(\C(=O)N[C@@H]1C(=O)N2C(C(=O)O)=C(CSc3nc(=O)c(O)nn3C)CS[C@H]12)c1csc(N)n1 [CEFTRIAXONE]	0.5
CO/N=C(\C(=O)N[C@@H]1C(=O)N2C(C(=O)O)=C(COC(N)=O)CS[C@H]12)c1ccco1 [CEFUROXIME]	2
CN(C)[C@@H]1C(O)=C(C(N)=O)C(=O)[C@@]2(O)C(O)=C3C(=O)c4c(O)cccc4[C@@](C)(O)[C@H]3C[C@@H]12 [TETRACYCLINE]	0.12
C[C@H]1COc2c(N3CCN(C)CC3)c(F)cc3c(=O)c(C(=O)O)cn1c23.C[C@H]1COc2c(N3CCN(C)CC3)c(F)cc3c(=O)c(C(=O)O)cn1c23.O [LEVOFLOXACIN]	0.5

# map each compound to its MIC50
1. CC(=O)NC[C@H]1CN(c2ccc(N3CCOCC3)c(F)c2)C(=O)O1 [LINEZOLID]
2. CC1(C)S[C@@H]2[C@H](NC(=O)Cc3ccccc3)C(=O)N2[C@H]1C(=O)O [PENICILLIN G]
3. CCCCCCCCCCNCCN[C@@]1(C)C[C@H](O[C@H]2[C@H](Oc3c4cc5cc3Oc3ccc(cc3Cl)[C@@H](O)[C@@H](NC(=O)[C@@H](CC(C)C)NC)C(=O)N[C@@H](CC(N)=O)C(=O)N[C@H]5C(=O)N[C@H]3C(=O)N[C@H](C(=O)N[C@H](C(=O)O)c5cc(O)c(CNCP(=O)(O)O)c(O)c5-c5cc3ccc5O)[C@H](O)c3ccc(c(Cl)c3)O4)O[C@H](CO)[C@@H](O)[C@@H]2O)O[C@@H](C)[C@H]1O [TELAVANCIN]
4. CC[C@H]1OC(=O)[C@H](C)C(=O)[C@H](C)[C@@H](O[C@@H]2O[C@H](C)C[C@H](N(C)C)[C@H]2O)[C@](C)(OC)C[C@@H](C)C(=O)[C@H](C)[C@H]2N(CCCCn3cnc(-c4cccnc4)c3)C(=O)O[C@]12C [TELITHROMYCIN]

Reply |
1. 1
2. 1
3. 0.015
4. 0.03

Ask | Supply MIC50 value. Item: CN[C@H](CC(C)C)C(=O)N[C@H]1C(=O)N[C@@H](CC(N)=O)C(=O)N[C@H]2C(=O)N[C@H]3C(=O)N[C@H](C(=O)N[C@H](C(=O)O)c4cc(O)cc(O)c4-c4cc3ccc4O)[C@H](O)c3ccc(c(Cl)c3)Oc3cc2cc(c3O[C@@H]2O[C@H](CO)[C@@H](O)[C@H](O)[C@H]2O[C@H]2C[C@](C)(N)[C@H](O)[C@H](C)O2)Oc2ccc(cc2Cl)[C@H]1O [VANCOMYCIN]
Reply | 0.5

Value source: ChEMBL document CHEMBL1275440
